species: Homo sapiens; assay: Selectivity ratio of EC50 for human MC4R to EC50 for human MC1R
*1 amine or outer side, *2 acyl side, *3 side chain or, on linkers, in order; H or OH if unused. Where a SMILES comes first, the peptide text is derived from it. Bridges are numbered along the chain shown (N, C = ends). [ ]: non-standard residue; d: D form. X4 = C#CCCCCN1C(=O)C([*:1])=C([*:2])C1=O; mXylylene = c1cc(C[*:1])cc(C[*:2])c1; oXylylene = c1ccc(C[*:2])c(C[*:1])c1; NMeR = CN[C@@H](CCCNC(=N)N)C(=O)O; Nle = CCCC[C@H](N)C(=O)O
value kind: Ratio EC50
// response body must contain only the number

>>> obs_value("CC[C@H](C)[C@@H]1NC(=O)[C@@H]2CCCN2C(=O)[C@H](Cc2c[nH]c3ccccc23)NC(=O)[C@H](CCCNC(=N)N)N(C)C(=O)[C@H](Cc2ccccc2)NC(=O)[C@H](Cc2cnc[nH]2)NC(=O)[C@H]([C@@H](C)O)NC(=O)[C@@H](NC(C)=O)CSCc2ccccc2CSC[C@@H](C(N)=O)NC1=O (Ac-CTHF[NMeR]WPIC-NH2; linker 1-9 via oXylylene)")
212
>>> obs_value("CC[C@H](C)[C@@H]1NC(=O)[C@@H]2CCCN2C(=O)[C@H](Cc2c[nH]c3ccccc23)NC(=O)[C@H](CCCNC(=N)N)N(C)C(=O)[C@H](Cc2ccccc2)NC(=O)[C@H](Cc2cnc[nH]2)NC(=O)[C@H]([C@@H](C)O)NC(=O)[C@H](NC(C)=O)CCSCc2cccc(c2)CSCC[C@H](C(N)=O)NC1=O")
110
>>> obs_value("C#CCCCCN1C(=O)C2=C(SC[C@@H]3NC(=O)[C@H](CCCNC(=N)N)NC(=O)[C@H](CC(=O)O)NC(=O)[C@H](Cc4c[nH]c5ccccc45)NC(=O)[C@H](CCCNC(=N)N)NC(=O)[C@H](Cc4ccccc4)NC(=O)[C@H](Cc4cnc[nH]4)NC(=O)CNC(=O)[C@H](CCCC)NC(=O)[C@H](CS2)NC(=O)[C@H](CCCNC(=N)N)NC(=O)[C@H](Cc2c[nH]c4ccccc24)NC(=O)[C@H](CCCNC(=N)N)NC(=O)[C@H](Cc2ccccc2)NC(=O)[C@H](Cc2cnc[nH]2)NC3=O)C1=O (cyclo(CHFRWRC[Nle]GHFRWDR); linker 1-7 via X4)")
27
>>> obs_value("CC[C@H](C)[C@@H]1NC(=O)[C@@H]2CCCN2C(=O)[C@H](Cc2c[nH]c3ccccc23)NC(=O)[C@H](CCCNC(=N)N)N(C)C(=O)[C@H](Cc2ccccc2)NC(=O)[C@H](Cc2cnc[nH]2)NC(=O)[C@H]([C@@H](C)O)NC(=O)[C@@H](NC(C)=O)CSCc2cccc(c2)CSC[C@@H](C(N)=O)NC1=O (Ac-CTHF[NMeR]WPIC-NH2; linker 1-9 via mXylylene)")
103

# next compound below
Q: Can you look up the measured Ratio EC50 of CCCC[C@@H]1NC(=O)[C@@H]2CSSC[C@H](NC(=O)[C@H](CCCNC(=N)N)NC(=O)[C@H](CC(=O)O)NC(=O)[C@H](Cc3c[nH]c4ccccc34)NC(=O)[C@H](CCCNC(=N)N)NC(=O)[C@H](Cc3ccccc3)NC(=O)[C@H](Cc3cnc[nH]3)NC(=O)CNC1=O)C(=O)N[C@@H](Cc1cnc[nH]1)C(=O)N[C@@H](Cc1ccccc1)C(=O)N[C@@H](CCCNC(=N)N)C(=O)N[C@@H](Cc1c[nH]c3ccccc13)C(=O)N[C@@H](CCCNC(=N)N)C(=O)N2 (cyclo(CHFRWRC[Nle]GHFRWDR); disulfide 1-7) for me?
Result: 35
